# ASSAY DETAILS: Oral bioavailability in Beagle dog 5 mg/kg
# Format: ADME, organism-based, Canis lupus familiaris
# EXPERIMENTAL SETUP: in vivo
MEASURED PROPERTY: bioavailability

substance_smiles=CCN1C(=O)C(C)(C)c2cc3[nH]c4c(c3cc21)CCCc1c-4n[nH]c1C result=56%
